# target.under.test: FGFR2 (Homo sapiens (Human))
# run.description: FGFR2 Biochemical Caliper Assay
pIC50: −log10 of the molar value.
Readings of pIC50 for the listed compounds

These solved cases illustrate the format of a correct answer.
C=C(C)C(=O)Nc1ccc(-c2c(-c3ccc(C(=O)N4CCCC4)cc3)c3c(N)ncnc3n2C)c(CN2CCOCC2)c1 [Example 486] : 4.00 to 6.00
C=C(C)C(=O)Nc1ccc(-c2c(-c3ccc(C(=O)N4CCCC[C@H]4C)cc3)c3c(N)ncnc3n2C)c(F)c1 [Example 462] : > 7.00
C=CC(=O)N1CCC(c2c(-c3ccc(Oc4ccc(C(F)(F)F)cn4)cc3)c3c(N)ncnc3n2C)C1 (centres unmarked) [Example 759] : 6.00 to 6.60
C=C(C)C(=O)Nc1ccc(-c2c(-c3ccc(Oc4nccc(C)n4)c(F)c3)c3c(N)ncnc3n2C)c(C(=O)N(C)C)c1 [Example 519] : 4.00 to 6.00
C=CC(=O)N1CCC(c2c(-c3ccc(OCc4ccccc4)cc3)c3c(N)ncnc3n2C)C1 (centres unmarked) [Example 748] : 6.60 to 7.00
C=C(C)C(=O)Nc1ccc(-c2c(-c3ccc(C(=O)Nc4ncccn4)cc3)c3c(N)ncnc3n2C)cc1 [Example 257] : 6.00 to 6.60
C=C(C)C(=O)Nc1ccc(-c2c(-c3ccc(C(=O)N[C@@H](CO)CC4CC4)cc3)c3c(N)ncnc3n2C)cc1 [Example 329] : > 7.00
C=CC(=O)N1CCC=C(c2c(-c3ccc(Oc4cccc(C)n4)cc3)c3c(N)ncnc3n2C)C1 [Example 665] : 6.60 to 7.00

[in] Which measured pIC50 belongs to C=CC(=O)N1CC[C@@H](c2c(-c3ccc(Oc4ncccn4)cc3)c3c(N)ncnc3n2CCN2CCOCC2)C1 [Example 740] , tested on FGFR2 (Homo sapiens (Human))?
[out] 4.00 to 6.00

[in] Do the same for C=C(C)C(=O)Nc1ccc(-c2c(-c3ccc(C(=O)N4CCCC4)cc3C#N)c3c(N)ncnc3n2C)cc1 [Example 563] please
[out] 4.00 to 6.00

###

Readings of pIC50 for the listed compounds
# target.under.test: FGFR2 (Homo sapiens (Human), UniProt P21802)
# Sequence (P21802 22-821): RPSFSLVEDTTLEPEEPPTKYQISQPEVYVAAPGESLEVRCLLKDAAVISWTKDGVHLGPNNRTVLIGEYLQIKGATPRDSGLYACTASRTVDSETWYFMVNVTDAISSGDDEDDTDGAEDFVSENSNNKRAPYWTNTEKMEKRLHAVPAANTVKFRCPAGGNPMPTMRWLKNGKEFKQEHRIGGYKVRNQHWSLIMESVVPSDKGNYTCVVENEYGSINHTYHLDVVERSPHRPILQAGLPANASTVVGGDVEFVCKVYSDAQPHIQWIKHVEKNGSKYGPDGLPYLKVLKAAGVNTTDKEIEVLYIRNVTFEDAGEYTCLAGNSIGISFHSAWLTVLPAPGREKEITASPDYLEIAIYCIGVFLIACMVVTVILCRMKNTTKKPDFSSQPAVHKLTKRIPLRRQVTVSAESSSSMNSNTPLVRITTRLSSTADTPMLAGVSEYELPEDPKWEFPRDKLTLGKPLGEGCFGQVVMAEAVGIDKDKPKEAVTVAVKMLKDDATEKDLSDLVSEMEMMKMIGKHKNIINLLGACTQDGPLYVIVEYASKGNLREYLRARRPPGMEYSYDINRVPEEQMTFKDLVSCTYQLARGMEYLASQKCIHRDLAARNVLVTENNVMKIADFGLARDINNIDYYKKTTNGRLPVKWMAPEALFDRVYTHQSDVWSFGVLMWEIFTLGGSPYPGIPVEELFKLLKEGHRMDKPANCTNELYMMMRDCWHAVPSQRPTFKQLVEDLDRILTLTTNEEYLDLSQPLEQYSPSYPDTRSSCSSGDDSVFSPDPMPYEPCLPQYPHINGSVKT
# run.description: FGFR2 Biochemical Caliper Assay
pIC50: −log10 of the molar value.

CC#CC(=O)Nc1ccc(-c2[nH]c3ncnc(N)c3c2-c2ccc(Oc3cccc(C)n3)c(OC)c2)cc1 [Example 787] : > 7.00

[in] Which measured pIC50 belongs to C=CC(=O)N1CCC(n2cc(-c3c(-c4ccc(Oc5ccccn5)cc4)c4c(N)ncnc4n3C)cn2)CC1 [Example 638] , tested on FGFR2 (Homo sapiens (Human), UniProt P21802)?
[out] > 7.00

[in] Do the same for C=CC(=O)N1CCC(c2c(-c3ccc(OC4CCCC4)cc3)c3c(N)ncnc3n2C)C1 (stereo not drawn) [Example 716] please
[out] > 7.00

[in] Do the same for C=CC(=O)N1CCC(c2c(-c3ccc(Oc4ccc(C)nc4)c(OC)c3)c3c(N)ncnc3n2C)C1 (stereo not drawn) [Example 685] please
[out] 4.00 to 6.00

[in] Do the same for C=CC(=O)N1CCC(c2c(-c3cnn(CC(F)(F)F)c3)c3c(N)ncnc3n2C)C1 (stereo not drawn) [Example 723] please
[out] 4.00 to 6.00

[in] Do the same for C=CC(=O)N1CCCC(n2cc(-c3c(-c4ccc(Oc5ccccc5)cc4)c4c(N)ncnc4n3C)cn2)C1C (stereo not drawn) [Example 626] please
[out] 6.60 to 7.00

[in] Do the same for C=CC(=O)N1CC=C(c2c(-c3ccc(OC)cc3)c3c(N)ncnc3n2C)CC1 [Example 654] please
[out] > 7.00

[in] Do the same for C=CC(=O)N1CCC(c2c(-c3ccc(Oc4ncccn4)cc3)c3c(N)ncnc3n2C)C1 (stereo not drawn) [Example 682] please
[out] 6.60 to 7.00

[in] Do the same for C=C(C)C(=O)Nc1ccc(-c2c(-c3ccc(C(=O)N4CC5CCC4CO5)cc3)c3c(N)ncnc3n2C)cc1 (stereo not drawn) [Example 238] please
[out] 6.00 to 6.60

[in] Do the same for C=C(C)C(=O)Nc1ccc(-c2c(-c3ccc4[nH]c(C(=O)O)cc4c3)c3c(N)ncnc3n2C)cc1 [Example 185] please
[out] 4.00 to 6.00

###

# target.under.test: FGFR2 (Homo sapiens (Human), UniProt P21802)
# run.description: Biochemical FGFR2 Caliper assay
assay.endpoint: IC50

C=CC(=O)N1CCC(c2c(-c3ccc(N4CCNC4=O)cc3)c3c(N)ncnc3n2C)C1 (stereo not shown) [Example 803] : 1000 to 100000 nM

[in] Look up IC50 for this compound: C=C(C)C(=O)Nc1ccc(-c2c(C3=CCC(c4ccccc4)CC3)c3c(N)ncnc3n2C)cc1 (stereo not shown) [Example 1227]
[out] 1000 to 100000 nM

[in] Do the same for C=C(C)C(=O)Nc1ccc(-c2c(-c3ccc4cccnc4c3)c3c(N)ncnc3n2C)cc1 [Example 1277] please
[out] 250 to 1000 nM

[in] Do the same for C#Cc1cc(C)c(-c2c(-c3ccc(Oc4nccc(C)n4)cc3)c3c(N)ncnc3n2C)cn1 [Example 1073] please
[out] 1000 to 100000 nM

[in] Do the same for C#Cc1cc(C)c(-c2cn3ncnc(N)c3c2C2=CC[C@H](C(=O)N3CCC[C@H]3C)CC2)cn1 [Example 1387] please
[out] 1000 to 100000 nM

[in] Do the same for C=C(C)C(=O)Nc1ccc(-c2c(C3=CC[C@@H](C(=O)N4CCC[C@]45CCOC5)CC3)c3c(N)ncnc3n2C)cc1 (single isomer, unassigned) [Example 961] please
[out] 1000 to 100000 nM

[in] Do the same for C=CC(=O)Nc1ccc(-c2c(C3=CC[C@H](C(=O)N4CCCC4)CC3)c3c(C)ncnc3n2C)cc1 (single isomer, unassigned) [Example 1107] please
[out] < 100 nM

###

# target.under.test: FGFR2 (Homo sapiens (Human))
# run.description: FGFR2 Biochemical Caliper Assay
Readings of IC50 for the listed molecules

These solved cases illustrate the format of a correct answer.
C=C(C)C(=O)Nc1ccc(-c2c(-c3ccc(Oc4nccc(C)n4)c(F)c3)c3c(N)ncnc3n2C)c(C(F)F)c1 : < 100 nM
C=C(C)C(=O)Nc1ccc(-c2c(-c3ccc(Oc4ncc(N(C)C)cn4)c(F)c3)c3c(N)ncnc3n2C)cc1 : 250 to 1000 nM
C=CC(=O)Nc1ccc(-c2[nH]c3ncnc(N)c3c2-c2ccc(C(=O)N3CCCC3)cc2)cc1 : 250 to 1000 nM

[in] Look up IC50 for this molecule: CC#CC(=O)Nc1ccc(-c2c(-c3ccc(C(=O)N4CCCC4)cc3)c3c(N)ncnc3n2C)cc1
[out] < 100 nM

[in] Do the same for C=C(C)C(=O)Nc1ccc(-c2c(-c3ccc(C(=O)NC4CCCC4OC)cc3)c3c(N)ncnc3n2C)cc1 (stereo not shown) please
[out] 100 to 250 nM

[in] Do the same for C=C(C)C(=O)Nc1ccc(-c2c(-c3cc(F)c(Oc4ncc(C)cn4)c(F)c3)c3c(N)ncnc3n2C)cc1 please
[out] < 100 nM

[in] Do the same for C=CC(=O)Nc1ccc(-c2c(C3CCN(C(=O)CNC(=O)NC)CC3)c3c(N)ncnc3n2C)cc1 please
[out] 1000 to 100000 nM

###

# target.under.test: FGFR2 (Homo sapiens (Human), UniProt P21802)
# run.description: Biochemical FGFR2 Caliper assay
pIC50: −log10 of the molar value.
Readings of pIC50 for the listed compounds

[in] Look up pIC50 for this compound: C=CC(=O)NC1CCC(c2c(-c3ccc(Oc4cccc(C)n4)cc3)c3c(N)ncnc3n2C)C1 (centres unmarked)
[out] > 7.00

[in] Do the same for C=CC(=O)N1CCC(c2c(-c3ccc(N4CCN(C)C4=O)cc3)c3c(N)ncnc3n2C)C1 (centres unmarked) please
[out] 4.00 to 6.00

[in] Do the same for C#Cc1ccc(-c2c(C3=CC[C@H](C(=O)N4CCCC45COC5)CC3)c3c(N)ncnc3n2C)c(C)n1 please
[out] 6.00 to 6.60

[in] Do the same for C=C(C)C(=O)Nc1ccc(-c2c(-c3ccc(N)nc3)c3c(N)ncnc3n2C)cc1 please
[out] 4.00 to 6.00

[in] Do the same for C#Cc1cc(C)c(-c2c(C3=CC[C@H](C(=O)N4CCC[C@H]4C#N)CC3)c3c(C)ncnc3n2C)c(C)n1 (atropisomer, axis not shown) [Example 1465] please
[out] > 7.00

[in] Do the same for C=C(C)C(=O)Nc1ccc(-c2c(-c3ccc4c(C(=O)NCC5CC5)n[nH]c4c3)c3c(N)ncnc3n2C)cc1 please
[out] 4.00 to 6.00

###

# target.under.test: FGFR2 (Homo sapiens (Human))
# run.description: FGFR2 Biochemical Caliper Assay
pIC50: −log10 of the molar value.
assay.endpoint: pIC50

[in] Look up pIC50 for this molecule: C=C(C)C(=O)Nc1ccc(-c2c(-c3ccc(Oc4cccc(C)n4)c(OCCOC)c3)c3c(N)ncnc3n2C)cc1
[out] 4.00 to 6.00

[in] Do the same for C=CC(=O)N1CCC(c2c(-c3cnn(-c4cccnc4)c3)c3c(N)ncnc3n2C)C1 (centres unmarked) please
[out] > 7.00

[in] Do the same for C=C(C)C(=O)Nc1ccc(-c2c(-c3ncc(Oc4nccc(C)n4)cc3F)c3c(N)ncnc3n2C)cc1 please
[out] > 7.00

The measured values listed here are drawn from patent US11780845B2.
